testSystem: human TDO (Homo sapiens (Human), UniProt P48775)
Sequence (P48775 whole entry): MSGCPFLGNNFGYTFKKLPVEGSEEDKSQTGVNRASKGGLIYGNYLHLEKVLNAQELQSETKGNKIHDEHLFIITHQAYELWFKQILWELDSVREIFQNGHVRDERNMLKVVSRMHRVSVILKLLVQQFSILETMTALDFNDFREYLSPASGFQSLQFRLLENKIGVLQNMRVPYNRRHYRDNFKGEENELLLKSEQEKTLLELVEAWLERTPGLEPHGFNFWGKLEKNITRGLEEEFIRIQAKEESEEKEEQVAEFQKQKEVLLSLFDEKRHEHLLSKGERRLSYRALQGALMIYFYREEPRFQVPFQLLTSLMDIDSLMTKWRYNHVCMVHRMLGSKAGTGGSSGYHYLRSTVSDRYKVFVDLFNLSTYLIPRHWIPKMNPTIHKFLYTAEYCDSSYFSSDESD
assayComment: Inhibition activity on human TDO (tryptophan 2,3-dioxygenase) (enzyme assay, absorbance at 480 nm)
Assay type: biochemical
cond: read-out: IC50 for inhibiting the activity of human TDO
Protocol: Assay for Determining the Inhibition activity of the Compounds of the Present Invention on Human TDO (tryptophan 2,3-dioxygenase) Human TDO activity was tested in vitro by the following method. […] For testing, 24 μL of enzyme (TDO) was diluted 100 times with 50 mM KPB to 2400 μL. […] After incubation for 2 minutes at room temperature, the absorbance at 480 nm was read on a Synergy HT Reader. […]
Structures can show the parent of a compound that is named as a salt.
Catalogue of IC50 readings, one per entry.

As a guide, the following entries are already answered.
N#Cc1ccc(N2CCC(C3c4c(F)cccc4-c4cncn43)CC2)cc1 (stereo not shown) [Example 5, trifluoroacetate] = 0.394 µM
Fc1ccc(N2CCC(C3c4c(F)cccc4-c4cncn43)CC2)cc1F (stereo not shown) [Example 46] = 0.0689 µM

input: Value lookup for IC50; key = NC(=O)c1ccc(N2CCC(C3c4c(F)cccc4-c4cncn43)CC2)cc1 (stereo not shown) [Example 6, trifluoroacetate]
output: 0.394 µM

input: Further, for Fc1cccc2c1C(C1CCN(c3ccccc3)CC1)n1cncc1-2 (stereo not shown) [Example 1, trifluoroacetate] ?
output: 0.338 µM

====

IC50 by entry:
testSystem: human IDO1 (Homo sapiens (Human))
assayComment: Inhibition activity on human IDO1 (enzyme assay, absorbance at 480 nm)
Assay type: biochemical
cond: purified recombinant human IDO1, 1 hour at 37° C.; read-out: IC50 for inhibiting the activity of human IDO1
Counter-ions that a name gives are not always drawn.
Write down the numeric answer in nM and omit the unit.

CC(=O)Nc1cccc(N2CCC(C3c4c(F)cccc4-c4cncn43)CC2)c1 (stereo not shown) [Example 12, trifluoroacetate] = 68.7
OCCn1cc(-c2ccc(N3CCC([C@H]4c5c(F)cccc5-c5cncn54)CC3)cc2)cn1 [Example 41] = 9.22
Nc1cc(-c2nnc(N3CCC(C4c5c(F)cccc5-c5cncn54)CC3)s2)ccn1 (stereo not shown) [Example 36, trifluoroacetate] = 10.6

Let us examine a further case.
input: IC50 for Fc1cccc2c1C(C1CCN(c3ncc(-c4cnn(C5CCOCC5)c4)cn3)CC1)n1cncc1-2 (stereo not shown) [Example 18] ?
output: 34

====

testSystem: human IDO1 (Homo sapiens (Human), UniProt P14902)
Sequence (P14902 whole entry): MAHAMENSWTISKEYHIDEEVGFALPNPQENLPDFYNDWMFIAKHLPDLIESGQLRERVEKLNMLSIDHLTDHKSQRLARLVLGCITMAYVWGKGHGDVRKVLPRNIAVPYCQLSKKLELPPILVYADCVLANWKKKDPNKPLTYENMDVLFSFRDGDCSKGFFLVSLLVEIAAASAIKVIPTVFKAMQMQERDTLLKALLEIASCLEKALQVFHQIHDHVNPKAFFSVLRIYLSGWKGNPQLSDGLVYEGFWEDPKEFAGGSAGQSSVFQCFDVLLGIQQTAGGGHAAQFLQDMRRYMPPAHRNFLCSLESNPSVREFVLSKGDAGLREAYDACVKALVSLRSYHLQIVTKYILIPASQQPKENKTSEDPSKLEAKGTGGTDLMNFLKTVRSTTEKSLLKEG
assayComment: Inhibition activity on human IDO1 (enzyme assay, absorbance at 480 nm)
Format: biochemical
cond: purified recombinant human IDO1, 1 hour at 37° C.; read-out: IC50 for inhibiting the activity of human IDO1
Structures can show the parent of a compound that is named as a salt.
IC50 reference
Respond numerically; units are nM and should not be typed.

CS(=O)(=O)N1CCC(Oc2ccc(N3CCC(C4c5c(F)cccc5-c5cncn54)CC3)cc2)CC1 (stereo not drawn) = 15.5
N#Cc1ccc(N2CCC(C3c4c(F)cccc4-c4cncn43)CC2)cc1F (stereo not drawn) = 8.84
Fc1cccc(N2CCC(C3c4c(F)cccc4-c4cncn43)CC2)c1 (stereo not drawn) [Example 3, trifluoroacetate] = 71.7
COc1ccc(N2CCC(C3c4c(F)cccc4-c4cncn43)CC2)cc1 (stereo not drawn) [Example 4, trifluoroacetate] = 96.2
O=C(NC1CCOCC1)c1ccc(N2CCC(C3c4c(F)cccc4-c4cncn43)CC2)cc1 (stereo not drawn) [Example 11, trifluoroacetate] = 73.2
N#Cc1ccc(NC(=O)N2CCC(C3c4c(F)cccc4-c4cncn43)CC2)cc1 (stereo not drawn) [Example 22, trifluoroacetate] = 56.9

input: # query: IC50 of entry OC[C@@H](O)Cn1cc(-c2ccc(N3CCC(C4c5c(F)cccc5-c5cncn54)CC3)cc2)cn1 (stereo partly drawn)
output: 35.9

input: Another molecule to look at: Cn1cc(-c2cccc(N3CCC(C4c5c(F)cccc5-c5cncn54)CC3)c2)cn1 (stereo not drawn)
output: 78.8

input: And Fc1cccc2c1C(C1CCN(c3ccc(OC4CCOC4)cc3)CC1)n1cncc1-2 (stereo not drawn) ?
output: 28.1

input: Repeat for the following molecule: Fc1cccc2c1C(C1CCN(c3ncc(-c4ccccc4)s3)CC1)n1cncc1-2 (stereo not drawn) [Example 23, trifluoroacetate]
output: 48.2

input: Proceed to OC[C@H](O)Cn1cc(-c2ccc(N3CCC(C4c5c(F)cccc5-c5cncn54)CC3)cc2)cn1 (stereo partly drawn) [Example 30, trifluoroacetate]
output: 58.7

input: Moving on to CS(=O)(=O)N1CCCC(Oc2cnc(N3CCC(C4c5c(F)cccc5-c5cncn54)CC3)nc2)C1 (stereo not drawn) [Example 37, trifluoroacetate]
output: 17.8

====

testSystem: UniProt P14902
assayComment: Inhibition activity on human IDO1 (enzyme assay, absorbance at 480 nm)
Format: biochemical
cond: read-out: IC50 for inhibiting the activity of human IDO1
Where a name gives a salt, the structure may show the parent alone.
recordedMetric: IC50

Check out these entries, answers already filled in.
Fc1cccc2c1C(C1CCN(c3ccc(-c4cnn([C@@H]5CCOC5)c4)cc3)CC1)n1cncc1-2 (some centres unmarked) [Example 32, trifluoroacetate] = 0.033 µM
N#Cc1ccc(N2CCC(C3c4c(F)cccc4-c4cncn43)CC2)cc1 (centres unmarked) [Example 5, trifluoroacetate] = 0.0812 µM
Fc1cccc2c1C(C1CCN(c3ccccc3)CC1)n1cncc1-2 (centres unmarked) [Example 1, trifluoroacetate] = 0.0874 µM

Proceed to the following item.
input: Look at this molecule and give its reported IC50. Fc1cccc2c1C(C1CCN(c3ccc(-c4cnn(C5CCOC5)c4)cc3)CC1)n1cncc1-2 (centres unmarked) [Example 44, trifluoroacetate]
output: 0.0166 µM

====

assayComment: Pharmacokinetics assay in c57bl/6 mice after intragastric administration
Format: in vivo
cond: mouse, plasma, po, female c57bl/6 mice, 3 mg/kg, read-out: Plasma Conc. Cmax
recordedMetric: Cmax
Write the numeric value and follow it with the unit.

input: Looking for the measured Cmax of `OCCn1cc(-c2ccc(N3CCC([C@H]4c5c(F)cccc5-c5cncn54)CC3)cc2)cn1` , can you help?
output: 1670 ng/mL

====

assayComment: Pharmacokinetics assay in SD rats after intragastrical administration
Assay type: in vivo
cond: both sexes, Sprague-Dawley, rat, plasma, po, intragastric, 10 mg/kg, read-out: Area Under Curve AUC
Structures can show the parent of a compound that is named as a salt.
recordedMetric: AUC (ng·h/mL)
State the answer as a number, implicitly in ng·h/mL.

input: State the recorded AUC for this entry: Fc1cccc(N2CCC(C3c4c(F)cccc4-c4cncn43)CC2)c1 (stereo not shown) [Example 3, trifluoroacetate]
output: 2620

====

assayComment: Pharmacokinetics assay in SD rats after intragastrical administration
Assay type: in vivo
cond: both sexes, Sprague-Dawley, rat, plasma, po, intragastric, 10 mg/kg, read-out: Mean Residence Time MRT
Structures can show the parent of a compound that is named as a salt.
recordedMetric: MRT (h)
Enter your answer as a number in h; do not include the unit.

input: Look up MRT for this molecule: Fc1cccc(N2CCC(C3c4c(F)cccc4-c4cncn43)CC2)c1 (stereo not shown) [Example 3, trifluoroacetate]
output: 2.72

====

assayComment: Pharmacokinetics assay in c57bl/6 mice after intragastric administration
Format: in vivo
cond: mouse, plasma, po, female c57bl/6 mice, 3 mg/kg, read-out: Area Under Curve AUC
recordedMetric: AUC (ng·h/mL)
Write down the numeric answer in ng·h/mL and omit the unit.

input: AUC for `OCCn1cc(-c2ccc(N3CCC([C@H]4c5c(F)cccc5-c5cncn54)CC3)cc2)cn1` ?
output: 4630

====

testSystem: IDO in HeLa cells (Homo sapiens (Human), UniProt P14902)
Sequence (P14902 whole entry): as the sequence (P14902 whole entry) above
assayComment: Inhibition activity on IDO in HeLa cells (INF-γ induced)
Assay type: cell-based
cond: HeLa cells, INF-γ and tryptophan, 48 hours; read-out: IC50 for inhibiting the activity of IDO in HeLa cells
Structures can show the parent of a compound that is named as a salt.
Entries annotated with measured pIC50
Entry type: numeric. Quantity: pIC50, the -log10 of concentration in molar units.

COc1cccc(NC(=O)C2CCC([C@@H]3c4c(F)cccc4-c4cncn43)CC2)c1 (some centres unmarked) = 7.33
Fc1cccc2c1C(C1CCN(c3ccc(-c4cnn(C5CCOC5)c4)cc3)CC1)n1cncc1-2 (centres unmarked) [Example 44, trifluoroacetate] = 6.76

input: Identify the measured pIC50 of Cn1cc(-c2cccc(N3CCC(C4c5c(F)cccc5-c5cncn54)CC3)c2)cn1 (centres unmarked) for IDO in HeLa cells (Homo sapiens (Human), UniProt P14902).
output: 6.60

input: Try this molecule next: `OCCn1cc(-c2ccc(N3CCC([C@H]4c5c(F)cccc5-c5cncn54)CC3)cc2)cn1`
output: 7.32

input: Similarly, CC(=O)Nc1cccc(N2CCC(C3c4c(F)cccc4-c4cncn43)CC2)c1 (centres unmarked) [Example 12, trifluoroacetate] ?
output: 7.15

====

This section presents compounds with their documented pIC50 values.
testSystem: human IDO1 (Homo sapiens (Human), UniProt P14902)
assayComment: Inhibition activity on human IDO1 (enzyme assay, absorbance at 480 nm)
Format: biochemical
cond: read-out: IC50 for inhibiting the activity of human IDO1
Structures can show the parent of a compound that is named as a salt.
Please report pIC50 as the negative decimal logarithm of the molar concentration, giving only the number.

Examples from the recorded data:
Fc1ccc(N2CCC(C3c4c(F)cccc4-c4cncn43)CC2)cc1F (stereo not shown) = 8.18
CC(=O)NCCn1cc(-c2ccc(N3CCC(C4c5c(F)cccc5-c5cncn54)CC3)cc2)cn1 (stereo not shown) [Example 43, trifluoroacetate] = 7.20
COCCn1cc(-c2ccc(N3CCC(C4c5c(F)cccc5-c5cncn54)CC3)cc2)cn1 (stereo not shown) [Example 42, trifluoroacetate] = 7.44

Turning to the following compound.
input: Data request, read-out pIC50, for CS(=O)(=O)N1CCC(n2cc(-c3ccc(N4CCC(C5c6c(F)cccc6-c6cncn65)CC4)cc3)cn2)CC1 (stereo not shown) [Example 31, trifluoroacetate]
output: 7.85
